# measurement_description: qHTS RealTime-Glo MT Cell Viability Assay in HEK293 cells - 32 hour (AID 1224868); further: nearly all actives have a fitted effect of over 50% in size
# experimental_conditions: RealTime-Glo luminescence; series mostly up to 76.8 µM
Results filed as inconclusive are left out. Activity calls are given as the source filed them. The call rests on the fitted dose curve; in most records, active means well fitted cell-killing curve with a large enough effect in the repeat runs; inconclusive means weak or mixed curves, or effect the other way; inactive means flat fitted curve, though single readings scatter.
Pick from active, inactive when you respond.

Check out these entries, answers already filled in.
Hi team, can someone confirm the assay call for O=c1cc(-c2ccccc2)oc2ccc3ccccc3c12 ?
inactive

Fill in: this test's call for COc1ccccc1N1CCN(CC(O)COc2cccc3ccccc23)CC1 (stereo not drawn) is ___
active

Give the logged outcome of this assay for the following molecule: O=C1C(=O)c2ccccc2C(O)=C1C1CCC(c2ccc(Cl)cc2)CC1 (stereo not drawn)
inactive

Check the results log: what was the call for O=C(OC(=O)c1ccccc1)c1ccccc1 ?
inactive

Test call for this molecule, please: CCCC(=O)C(=O)O
inactive

Further cases:
# fetch the recorded call for CCC1(CO)COCOC1 here
inactive

Each molecule tested received a call. Report the one for CCC1NC(=O)c2cc(S(N)(=O)=O)c(Cl)cc2N1 (stereo not drawn) .
inactive

Hi, sorry to bother you, what did the test record for O=[N+]([O-])c1ccc(Nc2ccc(Nc3ccccc3)c(S(=O)(=O)O)c2)c([N+](=O)[O-])c1 ?
inactive

I would be grateful if you could indicate the recorded call for Nc1ccc(N=Nc2ccccc2)c(N)c1 .
active

What did the test return for Cc1c(C)c2c(c(C)c1OC(=O)CCC(=O)OCCO)CC[C@@](C)(CCC[C@H](C)CCC[C@H](C)CCCC(C)C)O2 ?
inactive

Hi, sorry to bother you, what did the test record for O=C(O)c1ccc(OCCCOc2ccc(C(=O)O)cc2)cc1 ?
inactive

Per the assay record, what outcome was assigned to c1cc(N(CC2CO2)CC2CO2)ccc1Cc1ccc(N(CC2CO2)CC2CO2)cc1 (stereo not drawn) ?
active

Just curious, what result did Cc1cc(=O)c2c(O)c3c(O)cc(=O)c4c3c3c(cc(O)c1c23)C(C)(C)C=4O get here?
active

Dear all, I need the recorded test outcome for CCCCN(CCN(CCCC)C(=O)N1CCOCC1)C(=O)N1CCOCC1 , thank you.
inactive

Hi, sorry to bother you, what did the test record for CCC(C)COC(=O)CC(C)C (stereo not drawn) ?
inactive
